# EC50 values compiled below
Target: rat GHS-receptor (GHR-R) (Rattus norvegicus)
Construct: A full-length cDNA for rat GHR-R was obtained by RT-PCR; expressed in transfected cells
Sequence (O08725 whole entry): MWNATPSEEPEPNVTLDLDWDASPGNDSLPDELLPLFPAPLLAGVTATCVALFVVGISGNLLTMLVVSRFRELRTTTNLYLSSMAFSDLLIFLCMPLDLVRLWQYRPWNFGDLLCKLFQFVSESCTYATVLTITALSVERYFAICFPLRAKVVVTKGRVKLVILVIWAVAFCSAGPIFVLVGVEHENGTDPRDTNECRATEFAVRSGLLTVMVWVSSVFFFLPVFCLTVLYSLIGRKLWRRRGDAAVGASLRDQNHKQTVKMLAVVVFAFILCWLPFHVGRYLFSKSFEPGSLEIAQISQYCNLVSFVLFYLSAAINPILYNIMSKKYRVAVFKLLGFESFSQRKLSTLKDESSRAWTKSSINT
Assay: Ca-releasing activity (increase in intracellular calcium) in CHO-GHSR62 cells, FLIPR
Type: cell-based
Conditions: CHO-GHSR62 cells (CHO cells expressing rat GHS receptor), FLIPR; read-out: Ca-releasing activity EC50
Method: To assay an increase in the intracellular calcium ion concentration (Ca-releasing activity) occurring upon binding of a GH secretagogue (GHS) to GHS-receptor (GHR-R), a cell strain expressing rat GHR-R was created in the following manner. […] The amplified cDNA was ligated to vector pcDNAIII (Invitrogen) to construct expression vector GHSR-pcDNAIII. […] A change in the intracellular calcium ion concentration (Ca-releasing activity) was measured by an FLIPR system (Molecular Device). […]
Peptide text beside a SMILES is read from it. * marks the point of attachment. Octanoyl = CCCCCCCC(=O)*

Illustrative cases are given below, each with its answer.
1. CCCCCCCC(=O)OC[C@H](NC(=O)[C@H](CO)NC(=O)CNC(C)=O)C(=O)N[C@@H](Cc1ccccc1)C(=O)N[C@@H](CC(C)C)C(=O)N[C@@H](CO)C(=O)N1CCC[C@H]1C(=O)N[C@@H](CCC(=O)O)C(=O)N[C@@H](Cc1c[nH]cn1)C(=O)N[C@@H](CCC(N)=O)C(=O)O [Compound 41, [N-Acetyl]-Ghrelin (1-10)] = > 10 µM
2. CC(C)C[C@H](NC(=O)[C@H](CCCCN)NC(=O)[C@H](C)NC(=O)[C@@H]1CCCN1C(=O)[C@@H]1CCCN1C(=O)[C@H](CCCCN)NC(=O)[C@H](CCCCN)NC(=O)[C@H](CO)NC(=O)[C@H](CCC(=O)O)NC(=O)[C@@H](N)CCCCN)C(=O)N[C@@H](CCC(N)=O)C(=O)N1CCC[C@H]1C(=O)N[C@@H](CCCNC(=N)N)C(=O)O [Compound 19, Ghrelin (16-28)] = > 10 µM

Moving on to another compound below.
Record CCCCCCCC(=O)OC[C@H](NC(=O)[C@H](CO)NC(=O)CN)C(N)=O [Compound 34, Ghrelin (1-3)-amide] (H-Gly-Ser-Ser(Octanoyl)-NH2) . Reported EC50: > 10 µM
